The measurements presented in this section are drawn from PubChem BioAssay AID1851.

target: Cytochrome P450 1A2 (Homo sapiens); test: Cytochrome panel assay with activity outcomes; settings: recombinant CYP, pro-luciferin dealkylation, luminescence, p450-cyp1a2; series mostly up to 57.1 µM
Among all 16,000 compounds or so, about 5,700 (36%) were called active. Roughly 24% stayed inconclusive and do not appear here. The call rests on the fitted dose curve; in most records, active means well fitted curve in the direction sought with a large enough effect; inconclusive means small, poorly fitted or top-dose-only effect, or effect the other way; inactive means no such curve, though single readings can be large or run the other way. This is one part of the list.
Hi! Could you answer with just one of these? yes = active, no = inactive

Completed entries (count: 4):
Cc1ccc(C2CC(=O)c3cnc(N4CCc5ccccc5C4)nc3C2)cc1 (stereo not given) = no
CNc1nc(-c2ccccc2CN(C)C)nc2ccccc12 = yes
Cc1cccc(CNc2nc(-c3ccccc3CN(C)C)nc3ccccc23)c1 = yes
CN(Cc1cnc2nc(N)nc(N)c2n1)c1ccc(C(=O)N[C@H](CCC(=O)O)C(=O)O)cc1 = no

Problem: Test call, this molecule: O=C1CC(c2ccccc2)Cc2nc(N3CCc4ccccc4C3)ncc21 (stereo not given)
Result: yes

###

molecular target: Cytochrome P450 1A2 (Homo sapiens) (UniProt P05177); assay: Cytochrome panel assay with activity outcomes; details: recombinant CYP, pro-luciferin dealkylation, luminescence, p450-cyp1a2; series mostly up to 57.1 µM
Sequence (P05177 whole entry, looked up): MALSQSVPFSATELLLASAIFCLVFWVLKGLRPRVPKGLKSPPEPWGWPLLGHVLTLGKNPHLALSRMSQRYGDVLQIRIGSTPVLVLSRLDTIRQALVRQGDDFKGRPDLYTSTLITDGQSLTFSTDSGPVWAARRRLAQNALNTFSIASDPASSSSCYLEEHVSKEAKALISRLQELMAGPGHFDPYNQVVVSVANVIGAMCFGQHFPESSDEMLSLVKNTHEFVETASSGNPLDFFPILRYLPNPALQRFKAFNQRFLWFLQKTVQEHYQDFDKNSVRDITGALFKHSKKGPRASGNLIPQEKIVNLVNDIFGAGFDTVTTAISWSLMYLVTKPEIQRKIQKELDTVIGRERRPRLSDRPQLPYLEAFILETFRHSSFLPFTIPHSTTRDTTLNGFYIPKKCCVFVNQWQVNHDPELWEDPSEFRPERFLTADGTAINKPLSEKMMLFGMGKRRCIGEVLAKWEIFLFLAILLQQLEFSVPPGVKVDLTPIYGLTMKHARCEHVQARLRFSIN
Hit rate of the full screen: of about 16,000 compounds, about 5,700 (36%) were called active. Roughly 24% stayed inconclusive and do not appear here. The list shows a part of the results.
measurement.type: AC50

Completed entries (count: 5):
COc1ccccc1-c1cncnc1NCc1ccccc1 = 12.6 µM (active)
CCCc1cc(=O)oc2cc(OCc3nn[nH]n3)ccc12 = 12.6 µM (active)
Cc1ccc2c(c1)nnn2C1CCN(S(=O)(=O)c2ccc(C(=O)N3C(C)CCCC3C)cc2)CC1 (stereo not drawn) = inactive
O=C(NNC(=O)c1ccccc1-n1cccc1)c1ccccc1 = inactive
COc1cc(/C=C\C(=O)N2CCC=CC2=O)cc(OC)c1OC = 0.2 µM (active)

Problem: Fill blank: measured AC50 of the compound CN1C(=O)C(CC(N)=O)N(NC(=O)c2ccc(Cl)cc2)C1=S (stereo not drawn) is ____.
Result: inactive

Problem: Fill blank: measured AC50 of the compound CCCc1cc(=O)oc2cc(OCC(=O)N3CCc4ccccc43)ccc12 is ____.
Result: inactive

Problem: Fill blank: measured AC50 of the compound C/C=C\C[C@H](C)[C@H](O)[C@H]1C(=O)N[C@@H](CC)C(=O)N(C)CC(=O)N(C)[C@@H](CC(C)C)C(=O)N[C@@H](C(C)C)C(=O)N(C)[C@@H](CC(C)C)C(=O)N[C@@H](C)C(=O)N[C@@H](C)C(=O)N(C)[C@@H](CC(C)C)C(=O)N(C)[C@@H](CC(C)C)C(=O)N(C)[C@@H](C(C)C)C(=O)N1C is ____.
Result: inactive

Problem: Fill blank: measured AC50 of the compound COc1ccc(C(=O)Nc2ccc(Cl)cn2)cc1Cl is ____.
Result: 0.631 µM (active)

Problem: Fill blank: measured AC50 of the compound C=CCOc1cccc(CNn2cn[nH]c2=S)c1 is ____.
Result: 3.16 µM (active)

Problem: Fill blank: measured AC50 of the compound Cc1cc(N2CCOCC2)ccc1/C=C1\SC(=O)N(C(C)C)C1=O is ____.
Result: 14.1 µM (active)

Problem: Fill blank: measured AC50 of the compound COC(=O)[C@@]1(Cc2ccc(F)cc2)[C@H]2c3cc(C(=O)N4CCCC4)n(Cc4ccc(Cl)c(C(F)(F)F)c4)c3C[C@H]2CN1C(=O)c1ccccc1 is ____.
Result: inactive

Problem: Fill blank: measured AC50 of the compound CCCCc1cc(=O)oc2cc(OCC(=O)N(CC)CC)ccc12 is ____.
Result: 12.6 µM (active)

Problem: Fill blank: measured AC50 of the compound COc1ccccc1-c1cncnc1NCc1cccc(C)c1 is ____.
Result: 5.01 µM (active)
